Biological target: DLG4_1, P78352
Sequence (P78352 62-152): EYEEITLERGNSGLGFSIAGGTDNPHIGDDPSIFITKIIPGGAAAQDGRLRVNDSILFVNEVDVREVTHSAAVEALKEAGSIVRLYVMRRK
Assay: holdup assay
Parameters: key: below the threshold = too weak to quantify, mostly under pKd 3.1 to 4
Details: plain residues with an end cap or a label only (N-terminal biotin on a linker: ttds)
READOUT_KIND: pKd

binder="GARVSKETPL [MAPK12, P53778]" reported_value="below the threshold"
binder="PFRSRSPSEV [GPR6, P46095]" reported_value="below the threshold"
binder="DLDEEEDTHL [PODXL, O00592]" reported_value="below the threshold"
